- Test system: RPMI-8226
- experiment_notes: NCI tumour cell line growth inhibition, 48 h
The source made the active and inactive calls. Cut-off read from the data, not from the text of the source: active = GI50 up to about 1.1 µM and inactive = higher.
The categories you may choose from are T (active), F (inactive)

As a guide, the following entries are already answered.
>>> label_class("C=CCN1C(=O)/C(=C/c2ccco2)N=C1SC1OC(COC(C)=O)C(OC(C)=O)C(OC(C)=O)C1OC(C)=O (stereo unspecified)")
"F"
>>> label_class("COC(=O)CCCN(C)c1nc(N)n[nH]1")
"F"
>>> label_class("COc1ccccc1NC(=O)C1=C(C)NC(C)=C(C(=O)Nc2ccccc2OC)C1c1cccc2ccccc12")
"F"

Moving on to another compound below.
Q) Status in this test for CC(CC[C@@]1(C)C(=O)CCC2O[C@]21C)[C@H]1C[C@@H](c2ccoc2)OC1=O (stereo partly specified) ?
A) F

Reference for the values: ChEMBL document CHEMBL1201862
